Reported SPOT signal as a fraction of Bim BH3's signal on the same receptor and array values for a set of binders
Target: Bcl-xL, Q07817
Sequence (Q07817 1-209): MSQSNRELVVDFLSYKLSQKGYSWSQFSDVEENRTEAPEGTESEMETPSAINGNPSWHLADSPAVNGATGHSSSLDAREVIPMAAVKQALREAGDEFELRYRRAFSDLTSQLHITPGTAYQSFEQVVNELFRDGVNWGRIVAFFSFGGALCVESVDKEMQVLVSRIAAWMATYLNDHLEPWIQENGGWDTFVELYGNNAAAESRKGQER
Assay: peptide SPOT array, c-Myc-tagged receptor at 1 uM or 100 nM, anti-c-Myc-Cy3
Please reply with the value in numeric form only.

Some entries whose results are on file:
- BINDER: "AFTEREASEIMKSIGEAIQYLHSINI [MAPKAPK2]"
  MEASURED VALUE: 0.02
- BINDER: "MEMYQPSAVVDQCGADSLSGDRLGCF [HDAC2]"
  MEASURED VALUE: 0.06
- BINDER: "MSLFLRVVFSFTMFLDLFEEEYSTVS [USP40]"
  MEASURED VALUE: 0.06
- BINDER: "AYTMERSARQIMHTAMKYNLGLDLRT [GLUD2]"
  MEASURED VALUE: 0.19
- BINDER: "YFKLFRASGDMRTNGDNYLYEIQLSS [IGF2R]"
  MEASURED VALUE: 0.41
- BINDER: "RLRHDEIITLLKNVGERVVLEVEYEL [GRIP2]"
  MEASURED VALUE: 0.03
- BINDER: "SRELEEISERLEEAGGATSAQIEMNK [MYH2]"
  MEASURED VALUE: 0.02
- BINDER: "SQEPLEKAQLDALVGDQLIQSHHYAA [MCF2L2]"
  MEASURED VALUE: 0.06

Given the entry VLLTLLVAAVDRCQGQDVQEAGSCVQ [COL2A1] , report its measured SPOT signal as a fraction of Bim BH3's signal on the same receptor and array. 0.05

Can you handle SCMATVIHNPLKALLDQFYKEAIEHC [DPF3] next? 0.03

Can you handle PEDLQDVGWFLHKLSQQILKKEKEKK [TLR5] next? 0.1
